Target: full-length human PIKFYVE (N-terminal GST-fusion) (Homo sapiens (Human), UniProt Q9Y2I7, L932S/Q1183K/Q995L/S1033A/S696N/T998S)
Sequence (Q9Y2I7 whole entry S696N/L932S/Q995L/T998S/S1033A/Q1183K, the tested form may be a part): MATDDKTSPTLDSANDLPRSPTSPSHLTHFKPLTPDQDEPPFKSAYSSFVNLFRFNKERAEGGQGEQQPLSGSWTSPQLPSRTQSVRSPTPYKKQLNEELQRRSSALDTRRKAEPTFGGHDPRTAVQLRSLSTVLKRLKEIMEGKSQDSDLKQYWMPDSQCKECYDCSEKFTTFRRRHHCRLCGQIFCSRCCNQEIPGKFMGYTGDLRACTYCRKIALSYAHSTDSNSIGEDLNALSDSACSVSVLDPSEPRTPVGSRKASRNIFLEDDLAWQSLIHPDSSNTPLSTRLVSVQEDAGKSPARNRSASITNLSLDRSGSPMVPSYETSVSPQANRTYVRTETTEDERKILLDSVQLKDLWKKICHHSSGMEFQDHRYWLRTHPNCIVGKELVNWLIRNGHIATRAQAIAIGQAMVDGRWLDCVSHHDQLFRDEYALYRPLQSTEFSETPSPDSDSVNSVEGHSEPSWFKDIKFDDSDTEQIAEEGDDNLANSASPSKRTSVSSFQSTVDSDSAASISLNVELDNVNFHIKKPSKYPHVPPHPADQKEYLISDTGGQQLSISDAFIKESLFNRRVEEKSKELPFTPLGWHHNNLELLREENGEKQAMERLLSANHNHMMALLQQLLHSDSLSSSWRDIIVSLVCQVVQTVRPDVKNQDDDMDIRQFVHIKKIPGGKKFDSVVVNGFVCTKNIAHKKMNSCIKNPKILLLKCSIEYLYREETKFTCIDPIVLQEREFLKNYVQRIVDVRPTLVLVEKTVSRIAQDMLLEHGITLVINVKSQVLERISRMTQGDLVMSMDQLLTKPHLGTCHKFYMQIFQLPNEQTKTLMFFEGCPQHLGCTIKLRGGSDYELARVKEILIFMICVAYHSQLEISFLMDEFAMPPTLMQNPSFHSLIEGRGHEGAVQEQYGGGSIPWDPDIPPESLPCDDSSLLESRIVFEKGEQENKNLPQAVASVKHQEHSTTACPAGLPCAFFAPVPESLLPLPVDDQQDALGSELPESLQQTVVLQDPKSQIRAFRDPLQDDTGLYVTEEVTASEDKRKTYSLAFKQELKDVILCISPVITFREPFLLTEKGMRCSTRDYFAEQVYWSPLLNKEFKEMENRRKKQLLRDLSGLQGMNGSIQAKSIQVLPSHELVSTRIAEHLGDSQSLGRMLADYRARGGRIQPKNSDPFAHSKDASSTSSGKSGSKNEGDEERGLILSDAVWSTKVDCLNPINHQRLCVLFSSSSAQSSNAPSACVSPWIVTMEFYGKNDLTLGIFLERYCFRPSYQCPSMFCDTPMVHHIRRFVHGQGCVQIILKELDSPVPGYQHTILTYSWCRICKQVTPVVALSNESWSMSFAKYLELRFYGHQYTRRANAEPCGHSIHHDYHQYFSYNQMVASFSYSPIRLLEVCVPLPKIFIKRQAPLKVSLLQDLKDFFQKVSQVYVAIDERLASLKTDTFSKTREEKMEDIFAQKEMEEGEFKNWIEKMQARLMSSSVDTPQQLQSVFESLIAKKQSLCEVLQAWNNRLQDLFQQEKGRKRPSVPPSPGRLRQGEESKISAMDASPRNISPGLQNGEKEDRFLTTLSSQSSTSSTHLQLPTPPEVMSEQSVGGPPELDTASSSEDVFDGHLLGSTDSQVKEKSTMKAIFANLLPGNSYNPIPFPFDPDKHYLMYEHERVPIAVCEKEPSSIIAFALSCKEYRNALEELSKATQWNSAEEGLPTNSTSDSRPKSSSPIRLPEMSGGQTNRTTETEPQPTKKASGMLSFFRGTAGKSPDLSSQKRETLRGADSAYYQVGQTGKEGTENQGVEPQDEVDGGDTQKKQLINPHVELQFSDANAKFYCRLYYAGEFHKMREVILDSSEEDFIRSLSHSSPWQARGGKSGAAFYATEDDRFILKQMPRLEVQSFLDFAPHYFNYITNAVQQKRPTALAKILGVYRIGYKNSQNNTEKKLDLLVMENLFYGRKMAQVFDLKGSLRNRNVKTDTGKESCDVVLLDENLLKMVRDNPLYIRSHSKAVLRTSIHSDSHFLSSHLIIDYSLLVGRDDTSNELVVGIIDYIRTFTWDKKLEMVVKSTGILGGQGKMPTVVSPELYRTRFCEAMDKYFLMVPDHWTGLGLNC
Test: PIKfyve biochemical assay (ADP-Glo Kinase assay, Carna Biosciences)
Conditions: ADP-Glo, full-length human GST-PIKFYVE, 10 μM to 3 nM; read-out: hPIKfyve IC50
Text: PIKfyve Biochemical Assay. The biochemical PIKfyve inhibition assays were run by Carna Biosciences according to proprietary methodology based on the Promega ADP-Glo™ Kinase assay. A full-length human PIKFYVE [1-2098(end) amino acids and S696N, L932S, Q995L, T998S, S1033A and Q1183K of the protein having the sequence set forth in NCBI Reference Sequence No. NP_055855.2] was expressed as N-terminal GST-fusion protein (265 kDa) using baculovirus expression system. […]
Observed Property: IC50

# Molecule, Observed Property, Observed Result
rows = [
    ("N#Cc1ccc(N2CCc3c(OCc4cccnc4)nc(N4CCOCC4)nc32)cc1", "IC50", "10 to 100 nM"),
    ("c1cncc(N2CCc3c(N4CCN5CCOCC5C4)nc(N4CCOCC4)nc32)c1 (stereo not drawn)", "IC50", "1000 to 10000 nM"),
    ("Cc1cccc(-c2ccn(-c3nc(N4CCOCC4)nc4c3CCN4c3cccnc3)n2)c1", "IC50", "10 to 100 nM"),
    ("Cc1cccc(N2C(=O)Cc3c(OCc4cccnc4)nc(N4CCOCC4)nc32)c1", "IC50", "100 to 1000 nM"),
    ("c1ccc(N2CCc3c(N4CCOCC4)nc(N4CCOCC4)nc32)cc1", "IC50", "10 to 100 nM"),
    ("c1ccc(N2CCc3c(C4CCNCC4)nc(N4CCOCC4)nc32)cc1", "IC50", "100 to 1000 nM"),
    ("Fc1cccc(N2CCc3c(-c4ccoc4)nc(N4CCOCC4)nc32)c1", "IC50", "10 to 100 nM"),
    ("c1ccc(N2CCc3c(-c4ccccn4)nc(N4CCOCC4)nc32)cc1", "IC50", "100 to 1000 nM"),
    ("c1cncc(N2CCc3c(COC4CCNC4)nc(N4CCOCC4)nc32)c1 (stereo not drawn)", "IC50", "1000 to 10000 nM"),
    ("c1ccc(N2CCc3c(Oc4ccccn4)nc(N4CCOCC4)nc32)cc1", "IC50", "10 to 100 nM"),
]

Give measured IC50 for every item shown.
1. COc1cccc(-c2nccc(-c3nc(N4CCOCC4)nc4c3CCN4c3cccnc3)n2)c1
2. c1cc(-c2nc(N3CCOCC3)nc3c(-c4cnn(C5CC5)c4)c[nH]c23)ccn1
3. c1ccc(-n2cnc3c(-c4ccncc4)nc(N4CCOCC4)nc32)cc1
4. c1ccc(N2CCc3c(COc4cccnc4)nc(N4CCOCC4)nc32)cc1
5. c1cncc(Oc2nc(N3CCOCC3)nc3c2CCN3c2cccnc2)c1
6. c1cncc(COc2nc(N3CCOCC3)nc3c2CCN3C2CCNCC2)c1
7. c1cncc(N2CCc3c(OCC4CCOCC4)nc(N4CCOCC4)nc32)c1
8. c1ccc(N2CCc3c(OCc4ccccn4)nc(N4CCOCC4)nc32)cc1

Result:
["100 to 1000 nM", "10 to 100 nM", "10 to 100 nM", "100 to 1000 nM", "100 to 1000 nM", "> 10000 nM", "100 to 1000 nM", "10 to 100 nM"]
